# target of assay: T1, SNTG1, Q9NSN8
# T1 sequence (Q9NSN8 52-150, limits assumed, looked up): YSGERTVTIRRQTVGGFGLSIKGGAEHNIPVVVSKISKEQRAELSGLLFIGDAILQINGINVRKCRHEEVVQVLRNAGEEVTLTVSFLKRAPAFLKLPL
# test protocol: holdup assay
# Set-up: key: below the threshold = too weak to quantify, mostly under pKd 3.1 to 4
# experimental context: plain residues with an end cap or a label only (N-terminal biotin on a linker: ado-ado)
experimental endpoint: pKd

binder: KSRPENGTVC [TMEM178B, H3BS89]
experimental endpoint: pKd
observed value: below the threshold
//
binder: STYCDYTIEI [FAM71C, Q8NEG0]
experimental endpoint: pKd
observed value: below the threshold
//
binder: ELKAEDEVQI [DCHS2, Q6V1P9]
experimental endpoint: pKd
observed value: below the threshold
